system: ATP; assay: switch fluorescence ratio, 500 uM ATP over buffer (Cy3 cluster intensity, sum of 5 cycles each) (fold (ratio)); higher = stronger signal-on switching upon ATP binding; sequences stand for … in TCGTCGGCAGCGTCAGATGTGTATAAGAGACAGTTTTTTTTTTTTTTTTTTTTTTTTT…TC; conditions: aptamer strand: ATP DNA aptamer (quencher-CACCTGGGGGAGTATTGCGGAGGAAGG + anchor), 100 nM annealed; ATP concentration: 500 uM;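 further: ATP exposure 15 min at 22 °C before imaging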
# switch fluorescence ratio per record follows
# print the numeric value only

* CTAGTTTTTA | 1.01
* TTTTCGATTA | 0.987

Q: // lookup switch fluorescence ratio for GCCATAGGTC
Ans: 1.01

Q: Could you share which switch fluorescence ratio value was measured for TGTTTGGGGA ?
Ans: 0.997

Q: What does the record list as switch fluorescence ratio for CAATTCGTTA ?
Ans: 1.01

====

test system: ATP; experiment: switch fluorescence ratio, 500 uM ATP over buffer (Cy3 cluster intensity, sum of 5 cycles each) (fold (ratio)); higher = stronger signal-on switching upon ATP binding; sequences stand for … in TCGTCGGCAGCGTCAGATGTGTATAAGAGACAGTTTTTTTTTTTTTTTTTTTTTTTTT…TC; settings: aptamer strand: ATP DNA aptamer (quencher-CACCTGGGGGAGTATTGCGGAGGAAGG + anchor), 100 nM annealed; ATP concentration: 500 uM;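 further: ATP exposure 15 min at 22 °C before imaging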
observable: switch fluorescence ratio
A bare number is all that is needed in reply.

Guide cases for switch fluorescence ratio, answers given:
- AGGTGCAGTG: 1.01
- AGTGCCGGCA: 1.02
- CCATGGTACG: 1.05
- GGATTCTTGG: 0.977

Q: Which switch fluorescence ratio value is on record for TTCCGGGGGT ?
Ans: 1

Q: I have this sequence here, TCTTGACTAG , and I need its recorded switch fluorescence ratio.
Ans: 1.06

Q: Return reported switch fluorescence ratio; argument: TATTTAGACC
Ans: 1.04

Q: May I ask what switch fluorescence ratio has been recorded for TTTGTCTGGA ?
Ans: 0.991

Q: Report switch fluorescence ratio for TTAATGTTCA please.
Ans: 1

Q: Recorded switch fluorescence ratio of GCTGTTGAAT , please.
Ans: 1.02

Q: What value of switch fluorescence ratio has been reported for the following sequence? CGGAAATAT
Ans: 1.02

Q: Query (sequence): GCGTGGGGGC ; field requested: switch fluorescence ratio
Ans: 1.02

Q: Which switch fluorescence ratio is listed for CACTAGACGG ?
Ans: 1.45

Q: Need switch fluorescence ratio, item TCTCGGCTGG
Ans: 0.996

Q: Need switch fluorescence ratio, item GGTAAAGCAT
Ans: 1.03

Q: Query (sequence): ACCGGGGTGT ; field requested: switch fluorescence ratio
Ans: 1.17

Q: // returns reported switch fluorescence ratio for input CACACAAAAT
Ans: 0.977

Q: Find the recorded switch fluorescence ratio belonging to TGTCGTTTTT and report it.
Ans: 1.01

Q: Endpoint output: switch fluorescence ratio of GGTTATAGGG . Value?
Ans: 0.98

Q: Item under review: TGTGACGGAC . Reported switch fluorescence ratio?
Ans: 1.12

====

Recorded switch fluorescence ratio by entry
tested on: ATP; assay: switch fluorescence ratio, 500 uM ATP over buffer (Cy3 cluster intensity, sum of 5 cycles each) (fold (ratio)); higher = stronger signal-on switching upon ATP binding; sequences stand for … in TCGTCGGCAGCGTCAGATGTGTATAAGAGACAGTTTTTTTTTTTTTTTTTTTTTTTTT…TC; conditions: aptamer strand: ATP DNA aptamer (quencher-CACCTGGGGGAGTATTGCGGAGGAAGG + anchor), 100 nM annealed; ATP concentration: 500 uM;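 further: ATP exposure 15 min at 22 °C before imaging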
# answer = number (no unit)

* TTCATATATG | 0.989
* ATGATGAGTT | 0.986

Let's switch to this sequence now.
Q: Report switch fluorescence ratio for GCTTAATCAG please.
Ans: 0.988

====

Listed next: entries and their corresponding switch fluorescence ratio.
system: ATP; assay: switch fluorescence ratio, 500 uM ATP over buffer (Cy3 cluster intensity, sum of 5 cycles each) (fold (ratio)); higher = stronger signal-on switching upon ATP binding; sequences stand for … in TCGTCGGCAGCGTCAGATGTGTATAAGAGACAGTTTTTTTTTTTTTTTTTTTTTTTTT…TC; details: aptamer strand: ATP DNA aptamer (quencher-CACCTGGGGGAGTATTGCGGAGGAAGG + anchor), 100 nM annealed; ATP concentration: 500 uM;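 further: ATP exposure 15 min at 22 °C before imaging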
Lab note: jot the number down without any unit.

• GTGAGGGAGT = 1.01
• GTCGTTAGGA = 1.01
• TAATATTGTT = 1.01
• GACCTTGACG = 1.02
• TAGTTTGGTT = 0.989

Q: Which measured switch fluorescence ratio value corresponds to TTGCATTTTG ?
Ans: 0.985

Q: Could you share which switch fluorescence ratio value was measured for GTTAGGGTTG ?
Ans: 1.02

Q: # input sequence: AAACCGGGGT ; wanted: its switch fluorescence ratio
Ans: 1.66

Q: Quick one: switch fluorescence ratio of AAGAATAAAT ?
Ans: 1

Q: Param item = TATCTCAGAA ; retrieve measured switch fluorescence ratio.
Ans: 0.99

Q: Give its switch fluorescence ratio value. Item: TGGTATCAGC
Ans: 0.999

Q: GET /values?readout=switch fluorescence ratio&item= GGGTTGACCT
Ans: 1.07

Q: State the recorded switch fluorescence ratio for this entry: GGATTGGGTT
Ans: 1.04

Q: I would be grateful if you could share the reported switch fluorescence ratio for GACCGCTGGT .
Ans: 0.996

Q: Which switch fluorescence ratio is reported for this sequence? TATTTATGTC
Ans: 1.02

Q: What value of measured switch fluorescence ratio is listed for TTTATGAGGT ?
Ans: 0.999

Q: Need switch fluorescence ratio of CCTAGTGGGG , thanks.
Ans: 1.04

Q: switch fluorescence ratio lookup needed for GGGTTAAGTT , thanks.
Ans: 1

Q: Report switch fluorescence ratio for GAGTGCAGGG please.
Ans: 0.994

Q: Name the reported switch fluorescence ratio value associated with the sequence TCGTTGGGGA
Ans: 1

Q: # switch fluorescence ratio lookup, item TTCAATGGAA
Ans: 1.03

====

Below, each entry is listed with its recorded switch fluorescence ratio.
test system: ATP; experiment: switch fluorescence ratio, 500 uM ATP over buffer (Cy3 cluster intensity, sum of 5 cycles each) (fold (ratio)); higher = stronger signal-on switching upon ATP binding; sequences stand for … in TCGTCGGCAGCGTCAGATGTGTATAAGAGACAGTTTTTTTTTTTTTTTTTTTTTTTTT…TC; conditions: aptamer strand: ATP DNA aptamer (quencher-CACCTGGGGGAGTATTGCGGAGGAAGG + anchor), 100 nM annealed; ATP concentration: 500 uM;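 further: ATP exposure 15 min at 22 °C before imaging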
Reply briefly: the number, and no unit.

* AACGTATATA | 1.13
* CCGCTAAGGT | 1.39
* CATGTGTTGC | 0.987
* TGCCGGGAGT | 1.41
* AAATTTCTTT | 0.996
* CGGCTTTTTT | 0.959
* TTTTGTTTTG | 1
* TGAATGACGG | 0.993

Q: What value of switch fluorescence ratio on ATP does CAGATGGTTG have?
Ans: 0.984

Q: // fetch ATP switch fluorescence ratio for GACTACTGTA
Ans: 1.04

Q: Form: Entry = TCTCGCCTTT | System = ATP | switch fluorescence ratio = ____;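 further: ATP exposure 15 min at 22 °C before imaging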
Ans: 0.975

Q: Field: switch fluorescence ratio (ATP). Entry: GCCCCACCTT
Ans: 1.08

Q: Observed switch fluorescence ratio on ATP for AACTTGAAAT , please.
Ans: 1.47

Q: # query: switch fluorescence ratio | item TATAGAGGGG | system: ATP;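 further: ATP exposure 15 min at 22 °C before imaging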
Ans: 1.07

Q: Hi! What's the reported switch fluorescence ratio for TCTCTGGATG on ATP?
Ans: 1.02

Q: Lab request: please report switch fluorescence ratio under test system ATP for GCCTTATATG;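 further: ATP exposure 15 min at 22 °C before imaging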
Ans: 0.968

====

tested on: ATP; experiment: switch fluorescence ratio, 500 uM ATP over buffer (Cy3 cluster intensity, sum of 5 cycles each) (fold (ratio)); higher = stronger signal-on switching upon ATP binding; sequences stand for … in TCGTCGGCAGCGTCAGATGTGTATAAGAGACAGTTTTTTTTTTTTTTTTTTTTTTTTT…TC; conditions: aptamer strand: ATP DNA aptamer (quencher-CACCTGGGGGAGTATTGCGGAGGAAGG + anchor), 100 nM annealed; ATP concentration: 500 uM;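 further: ATP exposure 15 min at 22 °C before imaging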
Entries and their switch fluorescence ratio
Give only the figure.

Consider the following illustrative entries.
* GTTGGGGTTG | 1.01
* GTGTGAGGTG | 1
* GGGAATGGGG | 0.992
* GGTGATAAAT | 0.991
* AGATTTTGTC | 0.972

Q: // switch fluorescence ratio lookup, key: GCTGAGGGTG
Ans: 1.01

Q: Look up switch fluorescence ratio: TATATTGAGG
Ans: 0.991

Q: Look up switch fluorescence ratio: GCTTATCCTG
Ans: 0.982

Q: I am curious: what switch fluorescence ratio value has been reported for AGAAGGCTGC ?
Ans: 0.978
